test: Solubility in water at pH 7.4; type: physicochemical
reported property: solubility

Please indicate solubility recorded for `N#Cc1ccc2[nH]c(-c3ccncc3)c(-c3ccc(F)cc3)c2n1`
1 µg/mL

// data source = ChEMBL document CHEMBL1153352
